For each record, write down the corresponding protein stability index.
B1: RAD54B (parent)
chain: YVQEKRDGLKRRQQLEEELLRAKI

variants of: B1; test: protein stability index of a GFP-peptide fusion (GPS, HEK-293T) (PSI 1-6); higher = more stable; details: c terminus: a fixed tail appended;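 note: lentivirally expressed fusions sorted by FACS into six bins by GFP to DsRed ratio, PSI derived from sequencing read proportions per bin multiplied by bin number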
One number for each entry.

INSERT INTO results (mutation_spec, result_type, number) VALUES
  ('D7Y', 'protein stability index', 1.39);

For each entry beneath this line, provide reported protein stability index.
1. L19H
2. K10I
3. K5M

Result:
2.16
1.97
2.25
